Recorded values, source patent US5783597A.

Target: 5-lipoxygenase (5-LO) (Rattus norvegicus, UniProt P12527)
Construct: endogenous in cells; host or cells: intact RBL-1 (rat basophilic leukemia) cells, stimulated with calcium ionophore A23187
Sequence (P12527 whole entry): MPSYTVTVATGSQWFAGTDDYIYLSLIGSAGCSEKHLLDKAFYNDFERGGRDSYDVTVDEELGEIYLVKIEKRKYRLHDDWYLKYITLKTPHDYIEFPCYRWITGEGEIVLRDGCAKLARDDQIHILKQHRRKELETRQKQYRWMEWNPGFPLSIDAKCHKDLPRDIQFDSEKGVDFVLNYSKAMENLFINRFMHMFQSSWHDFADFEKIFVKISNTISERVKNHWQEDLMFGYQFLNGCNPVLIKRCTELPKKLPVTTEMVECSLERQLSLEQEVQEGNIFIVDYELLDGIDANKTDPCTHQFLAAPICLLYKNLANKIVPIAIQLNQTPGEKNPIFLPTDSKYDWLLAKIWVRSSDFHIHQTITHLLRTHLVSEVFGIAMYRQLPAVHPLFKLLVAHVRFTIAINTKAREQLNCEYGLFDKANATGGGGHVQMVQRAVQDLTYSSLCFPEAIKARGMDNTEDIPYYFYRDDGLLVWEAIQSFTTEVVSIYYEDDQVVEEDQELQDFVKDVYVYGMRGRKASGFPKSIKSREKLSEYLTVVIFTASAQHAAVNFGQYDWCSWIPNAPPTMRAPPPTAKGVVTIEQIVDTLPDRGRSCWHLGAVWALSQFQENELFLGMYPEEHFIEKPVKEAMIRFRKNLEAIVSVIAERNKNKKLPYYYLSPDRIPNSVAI
Assay: RBL-1 cell 5-lipoxygenase and cyclooxygenase - Whole cells (Procedure II)
Format: cell-based

>  <chemical structure>
CS(=O)(=O)Nc1ccc(Oc2cc(C(F)(F)F)ccc2Cl)s1

>  <IC50>
1800 nM

$$$$

====

Target: 5-lipoxygenase (5-LO) (Rattus norvegicus, UniProt P12527)
Construct: endogenous in cells; host or cells: intact RBL-1 (rat basophilic leukemia) cells, stimulated with calcium ionophore A23187
Assay: RBL-1 cell 5-lipoxygenase and cyclooxygenase - Homogenate (Procedure I)
Type: biochemical
Conditions: RBL-1 homogenate supernatant, 5-HETE; read-out: Procedure I (5-LO) Homog. IC50
# Lookup of reported log10 of IC50 keyed by entry
endpoint label: log10 of IC50 (log10 of the value in nM)

>  <compound>
Cc1cccc(Oc2ccc(NS(C)(=O)=O)s2)c1C

>  <target under test>
5-lipoxygenase (5-LO) (Rattus norvegicus, UniProt P12527)

>  <log10 of IC50>
1.78

$$$$
>  <compound>
CCCCCSc1ccc(NS(C)(=O)=O)s1

>  <target under test>
5-lipoxygenase (5-LO) (Rattus norvegicus, UniProt P12527)

>  <log10 of IC50>
1.60

$$$$
>  <compound>
CC(C)S(=O)(=O)Nc1ccc(Oc2ccccc2)s1

>  <target under test>
5-lipoxygenase (5-LO) (Rattus norvegicus, UniProt P12527)

>  <log10 of IC50>
1.70

$$$$
>  <compound>
Cc1cccc(Oc2ccc(NS(C)(=O)=O)s2)c1

>  <target under test>
5-lipoxygenase (5-LO) (Rattus norvegicus, UniProt P12527)

>  <log10 of IC50>
2.08

$$$$
>  <compound>
CS(=O)(=O)Nc1ccc(Oc2cccc(Cl)c2)s1

>  <target under test>
5-lipoxygenase (5-LO) (Rattus norvegicus, UniProt P12527)

>  <log10 of IC50>
1.78

$$$$
>  <compound>
CS(=O)(=O)Nc1ccc(Oc2ccc(Cl)cc2Cl)s1

>  <target under test>
5-lipoxygenase (5-LO) (Rattus norvegicus, UniProt P12527)

>  <log10 of IC50>
1.95

$$$$
>  <compound>
CS(=O)(=O)Nc1ccc(Sc2ccccc2)s1

>  <target under test>
5-lipoxygenase (5-LO) (Rattus norvegicus, UniProt P12527)

>  <log10 of IC50>
2.28

$$$$
>  <compound>
CS(=O)(=O)Nc1ccc(Oc2ccc(F)cc2Br)s1

>  <target under test>
5-lipoxygenase (5-LO) (Rattus norvegicus, UniProt P12527)

>  <log10 of IC50>
1.78

$$$$
>  <compound>
CS(=O)(=O)Nc1ccc(-c2ccc(F)cc2)s1

>  <target under test>
5-lipoxygenase (5-LO) (Rattus norvegicus, UniProt P12527)

>  <log10 of IC50>
2.18

$$$$
>  <compound>
CS(=O)(=O)Nc1ccc(Oc2ccc(F)cc2F)s1

>  <target under test>
5-lipoxygenase (5-LO) (Rattus norvegicus, UniProt P12527)

>  <log10 of IC50>
2.18

$$$$
>  <compound>
CCCCCCCCS(=O)(=O)Nc1ccc(Oc2ccccc2)s1

>  <target under test>
5-lipoxygenase (5-LO) (Rattus norvegicus, UniProt P12527)

>  <log10 of IC50>
2.48

$$$$
>  <compound>
CS(=O)(=O)Nc1ccc(Oc2ccc(F)c(Cl)c2)s1

>  <target under test>
5-lipoxygenase (5-LO) (Rattus norvegicus, UniProt P12527)

>  <log10 of IC50>
1.48

$$$$
>  <compound>
CCCCS(=O)(=O)Nc1ccc(Oc2ccccc2)s1

>  <target under test>
5-lipoxygenase (5-LO) (Rattus norvegicus, UniProt P12527)

>  <log10 of IC50>
2.56

$$$$
>  <compound>
CS(=O)(=O)Nc1ccc(Oc2cc(C(F)(F)F)cc(C(F)(F)F)c2)s1

>  <target under test>
5-lipoxygenase (5-LO) (Rattus norvegicus, UniProt P12527)

>  <log10 of IC50>
2.49

$$$$
>  <compound>
CS(=O)(=O)Nc1ccc(Oc2cccc(F)c2)s1

>  <target under test>
5-lipoxygenase (5-LO) (Rattus norvegicus, UniProt P12527)

>  <log10 of IC50>
2.20

$$$$
>  <compound>
CSc1ccc(Oc2ccc(NS(C)(=O)=O)s2)cc1

>  <target under test>
5-lipoxygenase (5-LO) (Rattus norvegicus, UniProt P12527)

>  <log10 of IC50>
2.00

$$$$
>  <compound>
O=S(=O)(Nc1ccc(Oc2ccccc2)s1)c1ccccc1

>  <target under test>
5-lipoxygenase (5-LO) (Rattus norvegicus, UniProt P12527)

>  <log10 of IC50>
2.00

$$$$
>  <compound>
CS(=O)(=O)Nc1ccc(Oc2ccc3ccccc3c2)s1

>  <target under test>
5-lipoxygenase (5-LO) (Rattus norvegicus, UniProt P12527)

>  <log10 of IC50>
1.78

$$$$
>  <compound>
Cc1cc(Oc2ccc(NS(C)(=O)=O)s2)ccc1F

>  <target under test>
5-lipoxygenase (5-LO) (Rattus norvegicus, UniProt P12527)

>  <log10 of IC50>
1.30

$$$$
>  <compound>
CS(=O)(=O)Nc1ccc(Cc2ccccc2)s1 [Example 31, N-(5-Benzylthien-2-yl)methanesulfonamide]

>  <target under test>
5-lipoxygenase (5-LO) (Rattus norvegicus, UniProt P12527)

>  <log10 of IC50>
2.04

$$$$
>  <compound>
Cc1cc(F)ccc1Oc1ccc(NS(C)(=O)=O)s1

>  <target under test>
5-lipoxygenase (5-LO) (Rattus norvegicus, UniProt P12527)

>  <log10 of IC50>
1.95

$$$$
